# EXPERIMENT SUMMARY: AUC(0 to infinity) in Sprague-Dawley rat administered intragastrically
# Assay type: ADME
# Parameters: route ig
# PARTICULARS: in vivo, po
ENDPOINT: AUC(0-inf) (ng·h/mL)
Numbers only; they are read as ng·h/mL.

Record C=CCONC(=O)CCSSCCC(=O)O[C@@H]1CC[C@@]2(C)[C@@H](CC[C@@]3(C)[C@H]2[C@H](O)C[C@H]2/C(=C(\CCC=C(C)C)C(=O)OCc4ccccc4)[C@@H](OC(C)=O)C[C@@]23C)[C@@H]1C , field AUC(0-inf): 136

====

# EXPERIMENT SUMMARY: Cytotoxicity against mouse RAW264.7 cells assessed as cell viability at 40 uM measured after 24 hrs by MTT assay relative to control
# Type: toxicity, cell-based
# PARTICULARS: read-out: Activity
Exercise: for every item that follows, state its recorded viability at 24 h, 40 µM.
Answer format: numeric, % implied, no suffix.

Short answer for CON(C)C(=O)c1ccccc1C(=O)O[C@@H]1CC[C@@]2(C)[C@@H](CC[C@@]3(C)[C@H]2[C@H](O)C[C@H]2/C(=C(\CCC=C(C)C)C(=O)OCc4ccccc4)[C@@H](OC(C)=O)C[C@@]23C)[C@@H]1C : viability at 24 h, 40 µM was 100

What the record says about CC(=O)O[C@H]1C[C@@]2(C)[C@@H](C[C@@H](O)[C@H]3[C@@]4(C)CC[C@@H](OC(=O)c5ccccc5C(=O)NOCc5ccccc5)[C@@H](C)[C@@H]4CC[C@@]32C)/C1=C(\CCC=C(C)C)C(=O)OCc1ccccc1 : viability at 24 h, 40 µM is 96

molecule CC(=O)O[C@H]1C[C@@]2(C)[C@@H](C[C@@H](O)[C@H]3[C@@]4(C)CC[C@@H](O)[C@@H](C)[C@@H]4CC[C@@]32C)/C1=C(\CCC=C(C)C)C(=O)NOC(=O)c1ccc([N+](=O)[O-])cc1 , viability at 24 h, 40 µM observed: 70.8

Summary for this molecule, CC(=O)O[C@H]1C[C@@]2(C)[C@@H](C[C@@H](O)[C@H]3[C@@]4(C)CC[C@@H](O)[C@@H](C)[C@@H]4CC[C@@]32C)/C1=C(\CCC=C(C)C)C(=O)NOc1ccc([N+](=O)[O-])cc1[N+](=O)[O-] : viability at 24 h, 40 µM is 15.2
